Origin of measurements: paper PMC10862543

Test system: TZM-bl cells
Assay: MTT cytotoxicity assay on uninfected cells
Format: cell-based
Conditions: uninfected TZM-bl, parallel to R5, administration 2 hpi, evaluation 48 hpi
REPORTED PROPERTY: CC50

*Q* Answer with reported CC50 of CN(C)CCCNc1cc2c3c(c(NCCCCCC(=O)OCC4CNCCCNCCNCCN4)cc4c3c1C(=O)N(CCCN(C)C)C4=O)C(=O)N(CCCN(C)C)C2=O (stereo not shown)
*A* > 25 µM

====

Experiment: MTT cytotoxicity assay on uninfected cells
Assay type: cell-based
Details: human, uninfected TZM-bl, parallel to R5, administration 2 hpi, evaluation 24 hpi
Experimental: We used TZM-bl cells that are HeLa cells stably expressing large amounts of CD4, CXCR4, and CCR5, thus being highly susceptible to HIV-infection, with integrated luciferase and beta-galactosidase genes under the control of the HIV-1 promoter. […] Cytotoxicity of tested compounds was performed in parallel to antiviral and reporter assays by MTT. […] IC50 and CC50 values were calculated by using a nonlinear regression model.
REPORTED PROPERTY: CC50 at 24 h

*Q* Answer with reported CC50 at 24 h of CN(C)CCCNc1cc2c3c(c(NCCCCCC(=O)OCC4CNCCCNCCNCCN4)cc4c3c1C(=O)N(CCCN(C)C)C4=O)C(=O)N(CCCN(C)C)C2=O (stereo not shown)
*A* > 25 µM

====

Assay: MTT cytotoxicity assay on uninfected cells
Assay type: cell-based
Details: human, uninfected TZM-bl, parallel to X4, administration 0 hpi, evaluation 48 hpi
REPORTED PROPERTY: CC50 at 48 h

*Q* Answer with reported CC50 at 48 h of CN(C)CCCNc1cc2c3c(c(NCCCCCC(=O)OCC4CNCCCNCCNCCN4)cc4c3c1C(=O)N(CCCN(C)C)C4=O)C(=O)N(CCCN(C)C)C2=O (stereo not shown)
*A* > 25 µM

====

Tested on: TZM-bl cells
Test: MTT cytotoxicity assay on uninfected cells
Format: cell-based
Details: uninfected TZM-bl, parallel to X4, administration 2 hpi, evaluation 48 hpi
REPORTED PROPERTY: CC50

*Q* Answer with reported CC50 of CN(C)CCCNc1cc2c3c(c(NCCCCCC(=O)OCC4CNCCCNCCNCCN4)cc4c3c1C(=O)N(CCCN(C)C)C4=O)C(=O)N(CCCN(C)C)C2=O (stereo not shown) [compound 5]
*A* > 25 µM

====

System: HIV-1 R5 strain (BaL)
Assay: microbe, parasite or virus in culture
Assay type: cell-based
Conditions: Human immunodeficiency virus 1, BAL, TZM-bl, R5 strain, administration 2 hpi, evaluation 48 hpi, MOI 0.3
REPORTED PROPERTY: IC50 (µM)
Could you give me the number in µM? Just the number is fine.

*Q* Please report the measured IC50 for CN(C)CCCNc1cc2c3c(c(NCCCCCC(=O)OCC4CNCCCNCCNCCN4)cc4c3c1C(=O)N(CCCN(C)C)C4=O)C(=O)N(CCCN(C)C)C2=O (stereo not shown) [compound 5] tested on HIV-1 R5 strain (BaL).
*A* 16.6

====

Test system: TZM-bl cells
Assay: MTT cytotoxicity assay on uninfected cells
Assay type: cell-based
Details: uninfected TZM-bl, parallel to R5, administration 0 hpi, evaluation 24 hpi
REPORTED PROPERTY: CC50

*Q* Answer with reported CC50 of CN(C)CCCNc1cc2c3c(c(NCCCCCC(=O)OCC4CNCCCNCCNCCN4)cc4c3c1C(=O)N(CCCN(C)C)C4=O)C(=O)N(CCCN(C)C)C2=O (stereo not shown) [compound 5]
*A* > 25 µM
